target: IRAK4 (h) (Homo sapiens (Human), UniProt Q9NWZ3); assay: Kinase selectivity panel: IRAK4 (h); assay type: biochemical; conditions: 10 μM in duplicate, read-out: % inhibition of control values
Sequence (Q9NWZ3 whole entry): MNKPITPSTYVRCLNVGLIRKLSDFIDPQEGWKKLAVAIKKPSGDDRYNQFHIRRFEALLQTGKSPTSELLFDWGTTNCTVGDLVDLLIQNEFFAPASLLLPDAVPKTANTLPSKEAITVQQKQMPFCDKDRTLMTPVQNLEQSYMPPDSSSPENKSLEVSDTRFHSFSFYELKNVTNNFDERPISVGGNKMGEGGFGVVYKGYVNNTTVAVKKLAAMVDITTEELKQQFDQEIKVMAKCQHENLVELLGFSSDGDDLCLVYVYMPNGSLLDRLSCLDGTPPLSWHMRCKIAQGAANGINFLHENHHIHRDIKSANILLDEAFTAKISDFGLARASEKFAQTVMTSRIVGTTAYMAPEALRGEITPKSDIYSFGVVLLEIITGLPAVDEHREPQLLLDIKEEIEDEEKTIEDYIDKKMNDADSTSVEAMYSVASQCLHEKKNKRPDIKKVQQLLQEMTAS
MEASURED_METRIC: inhibition at 10 µM (%)

Example entries begin here.
In [3]: df
Out[3]:
                                   compound      measured_metric  readout_number
0  COCCN1CCC(CNC(=O)c2n[nH]c3ccc(-c4cccc(F)c4F)cc23)CC1 [Compound 8]  inhibition at 10 µM               0
1  COc1ccc2[nH]nc(C(=O)NCC3CCN(CCC(=O)O)CC3)c2c1 [Compound 3]  inhibition at 10 µM               0

[I] COc1ccc2[nH]nc(C(=O)NCC3CCN(CC(=O)O)CC3)c2c1 [Compound 1]
[II] COCCN1CCC(CNC(=O)c2n[nH]c3ccc(OC)cc23)CC1 [Compound 2]
Q) Hi team, can someone confirm which has the larger inhibition at 10 µM: I or II ? Thanks. Give the label of your selection.
A) II
(II: 8%, I: 0%)

###

target: p38alpha kinase (h) (Homo sapiens (Human)); assay: Kinase selectivity panel: p38alpha kinase (h); format: biochemical; details: 10 μM in duplicate, read-out: % inhibition of control values
Sequence (Q16539 whole entry): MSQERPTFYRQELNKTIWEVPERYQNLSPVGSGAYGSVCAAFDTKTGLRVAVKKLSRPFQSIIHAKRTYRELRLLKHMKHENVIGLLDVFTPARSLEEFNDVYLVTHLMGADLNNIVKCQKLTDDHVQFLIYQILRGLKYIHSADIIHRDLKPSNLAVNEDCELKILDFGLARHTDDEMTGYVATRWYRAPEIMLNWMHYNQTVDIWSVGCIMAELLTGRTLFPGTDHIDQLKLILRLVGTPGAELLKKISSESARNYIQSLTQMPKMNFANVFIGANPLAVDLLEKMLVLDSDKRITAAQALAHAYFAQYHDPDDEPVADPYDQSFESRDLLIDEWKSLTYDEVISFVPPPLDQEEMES
MEASURED_METRIC: inhibition at 10 µM (%)

The following compounds have reported results that may help.
                               given_smiles  readout_number
0  COCCN1CCC(CNC(=O)c2n[nH]c3ccc(OC)cc23)CC1               0
1  COc1ccc2[nH]nc(C(=O)NCC3CCN(CC(=O)O)CC3)c2c1               0

[A] COc1ccc2[nH]nc(C(=O)NCC3CCN(CCC(=O)O)CC3)c2c1
[B] COCCN1CCC(CNC(=O)c2n[nH]c3ccc(-c4cccc(F)c4F)cc23)CC1
Q) So which one has the bigger inhibition at 10 µM here, A or B ? Reply briefly: the label of your chosen item.
A) B
(B: 1%, A: 0%)

###

target: PDK1 (h) (Homo sapiens (Human), UniProt O15530); experiment: Kinase selectivity panel: PDK1 (h); assay type: biochemical; details: 10 μM in duplicate, read-out: % inhibition of control values
Sequence (O15530 whole entry): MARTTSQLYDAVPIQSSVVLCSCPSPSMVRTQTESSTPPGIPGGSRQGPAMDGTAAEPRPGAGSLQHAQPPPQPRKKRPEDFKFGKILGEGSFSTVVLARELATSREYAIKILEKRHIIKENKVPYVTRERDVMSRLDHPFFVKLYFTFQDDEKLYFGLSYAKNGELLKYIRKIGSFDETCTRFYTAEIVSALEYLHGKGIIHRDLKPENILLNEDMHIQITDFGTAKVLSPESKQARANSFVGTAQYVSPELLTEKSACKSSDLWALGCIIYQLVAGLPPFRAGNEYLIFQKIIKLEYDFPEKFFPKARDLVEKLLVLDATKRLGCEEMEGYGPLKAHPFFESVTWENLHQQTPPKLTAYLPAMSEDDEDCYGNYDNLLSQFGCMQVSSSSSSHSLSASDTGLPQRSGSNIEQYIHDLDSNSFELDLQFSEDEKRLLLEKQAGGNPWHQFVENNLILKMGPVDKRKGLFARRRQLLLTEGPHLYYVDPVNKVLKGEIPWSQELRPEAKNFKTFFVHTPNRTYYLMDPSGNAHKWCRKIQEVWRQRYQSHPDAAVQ
MEASURED_METRIC: inhibition at 10 µM (%)

Answered examples (2):
>>> print(df.to_string())
                               given_smiles  units_label  readout_number
0  COc1ccc2[nH]nc(C(=O)NCC3CCN(CC(=O)O)CC3)c2c1            %               6
1  COc1ccc2[nH]nc(C(=O)NCC3CCN(CCC(=O)O)CC3)c2c1            %               0

[P] COCCN1CCC(CNC(=O)c2n[nH]c3ccc(-c4cccc(F)c4F)cc23)CC1
[Q] COCCN1CCC(CNC(=O)c2n[nH]c3ccc(OC)cc23)CC1
Q) // compare measured inhibition at 10 µM, left P , right Q , return larger Record your answer as the label of the chosen record.
A) Q
(Q: 6%, P: 0%)

###

molecular target: Akt1/PKBalpha (h) (Homo sapiens (Human), UniProt P31749); experiment: Kinase selectivity panel: Akt1/PKBalpha (h); assay type: biochemical; conditions: 10 μM in duplicate, read-out: % inhibition of control values
Sequence (P31749 whole entry): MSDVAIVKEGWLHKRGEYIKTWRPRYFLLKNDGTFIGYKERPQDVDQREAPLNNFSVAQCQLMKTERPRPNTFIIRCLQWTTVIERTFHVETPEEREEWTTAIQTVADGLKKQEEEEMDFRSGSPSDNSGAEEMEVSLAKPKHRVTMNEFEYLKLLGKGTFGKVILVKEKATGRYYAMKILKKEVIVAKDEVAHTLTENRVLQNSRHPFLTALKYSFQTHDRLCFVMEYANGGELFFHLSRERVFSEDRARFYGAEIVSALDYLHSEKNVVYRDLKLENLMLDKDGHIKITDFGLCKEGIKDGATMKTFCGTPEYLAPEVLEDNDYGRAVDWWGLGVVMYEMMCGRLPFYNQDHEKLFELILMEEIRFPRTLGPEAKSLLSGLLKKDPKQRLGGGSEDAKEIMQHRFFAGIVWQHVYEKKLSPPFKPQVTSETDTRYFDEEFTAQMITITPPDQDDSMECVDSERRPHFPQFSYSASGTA
MEASURED_METRIC: inhibition at 10 µM (%)

// worked examples, inhibition at 10 µM included
>>> df
                                   compound  readout_number
0  COCCN1CCC(CNC(=O)c2n[nH]c3ccc(-c4cccc(F)c4F)cc23)CC1 [Compound 8]               0
1  COc1ccc2[nH]nc(C(=O)NCC3CCN(CCC(=O)O)CC3)c2c1 [Compound 3]               0

[1] COCCN1CCC(CNC(=O)c2n[nH]c3ccc(OC)cc23)CC1 [Compound 2]
[2] COc1ccc2[nH]nc(C(=O)NCC3CCN(CC(=O)O)CC3)c2c1 [Compound 1]
Q) Which is greater in inhibition at 10 µM, the first item 1 or the second item 2 ? Give the chosen item's label as your response.
A) 1

###

molecular target: MAPKAPK2 (h) (Homo sapiens (Human), UniProt P49137); assay: Kinase selectivity panel: MAPKAPK2 (h); format: biochemical; conditions: 10 μM in duplicate, read-out: % inhibition of control values
Sequence (P49137 whole entry): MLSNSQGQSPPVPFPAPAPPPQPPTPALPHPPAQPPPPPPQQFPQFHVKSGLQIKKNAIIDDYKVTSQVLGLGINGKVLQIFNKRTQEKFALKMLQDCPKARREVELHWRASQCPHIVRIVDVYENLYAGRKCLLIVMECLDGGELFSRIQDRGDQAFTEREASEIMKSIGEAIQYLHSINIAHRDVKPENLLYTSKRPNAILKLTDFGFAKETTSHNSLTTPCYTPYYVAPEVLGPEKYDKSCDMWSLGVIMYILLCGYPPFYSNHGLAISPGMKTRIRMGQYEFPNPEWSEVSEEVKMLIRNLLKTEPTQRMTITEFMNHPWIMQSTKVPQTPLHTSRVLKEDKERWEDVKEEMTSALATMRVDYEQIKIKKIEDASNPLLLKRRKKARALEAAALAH
MEASURED_METRIC: inhibition at 10 µM (%)

// worked examples, inhibition at 10 µM included
In [3]: df
Out[3]:
                               given_smiles  readout_number
0  COc1ccc2[nH]nc(C(=O)NCC3CCN(CCC(=O)O)CC3)c2c1               0
1  COc1ccc2[nH]nc(C(=O)NCC3CCN(CC(=O)O)CC3)c2c1               0

[I] COCCN1CCC(CNC(=O)c2n[nH]c3ccc(OC)cc23)CC1
[II] COCCN1CCC(CNC(=O)c2n[nH]c3ccc(-c4cccc(F)c4F)cc23)CC1
Q) Dear colleague, could you let me know whether I or II has the lower recorded inhibition at 10 µM? Thanks. Your answer should be the label attached to the chosen record.
A) I
(I: 0%, II: 17%)

###

biological target: FGFR1 kinase (h) (Homo sapiens (Human)); assay: Kinase selectivity panel: FGFR1 kinase (h); format: biochemical; conditions: 10 μM in duplicate, read-out: % inhibition of control values
Sequence (P11362 22-822): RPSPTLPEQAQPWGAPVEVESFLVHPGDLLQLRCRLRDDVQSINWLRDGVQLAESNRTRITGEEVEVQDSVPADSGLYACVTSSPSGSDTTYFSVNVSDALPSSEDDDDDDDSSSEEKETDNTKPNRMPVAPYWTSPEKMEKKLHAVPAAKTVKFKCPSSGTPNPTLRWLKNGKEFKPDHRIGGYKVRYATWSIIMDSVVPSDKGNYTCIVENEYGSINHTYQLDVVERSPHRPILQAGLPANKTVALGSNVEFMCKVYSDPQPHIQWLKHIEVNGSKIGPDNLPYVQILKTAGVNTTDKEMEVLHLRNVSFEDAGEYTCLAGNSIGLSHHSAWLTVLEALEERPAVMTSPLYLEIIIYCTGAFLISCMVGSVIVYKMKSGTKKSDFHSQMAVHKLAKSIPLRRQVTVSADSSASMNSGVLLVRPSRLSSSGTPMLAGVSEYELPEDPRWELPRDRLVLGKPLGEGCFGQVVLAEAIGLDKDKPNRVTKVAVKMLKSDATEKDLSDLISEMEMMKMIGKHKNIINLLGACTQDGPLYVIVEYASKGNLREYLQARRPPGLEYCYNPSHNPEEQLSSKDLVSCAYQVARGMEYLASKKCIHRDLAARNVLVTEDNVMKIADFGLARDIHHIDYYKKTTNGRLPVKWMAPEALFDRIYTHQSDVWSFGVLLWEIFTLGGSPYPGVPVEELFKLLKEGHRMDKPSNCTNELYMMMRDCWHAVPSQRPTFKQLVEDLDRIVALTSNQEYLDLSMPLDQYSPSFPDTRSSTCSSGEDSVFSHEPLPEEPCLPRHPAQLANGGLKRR
MEASURED_METRIC: inhibition at 10 µM (%)

In [3]: df
Out[3]:
                               given_smiles      measured_metric  readout_number
0  COCCN1CCC(CNC(=O)c2n[nH]c3ccc(OC)cc23)CC1  inhibition at 10 µM               0
1  COc1ccc2[nH]nc(C(=O)NCC3CCN(CCC(=O)O)CC3)c2c1  inhibition at 10 µM               0

[a] COc1ccc2[nH]nc(C(=O)NCC3CCN(CC(=O)O)CC3)c2c1
[b] COCCN1CCC(CNC(=O)c2n[nH]c3ccc(-c4cccc(F)c4F)cc23)CC1
Q) Of a and b , whose reported inhibition at 10 µM is the larger number? When you have decided, please share the label of that item.
A) b
(b: 8%, a: 0%)

###

biological target: ERK1 (h) (Homo sapiens (Human)); assay: Kinase selectivity panel: ERK1 (h); format: biochemical; conditions: 10 μM in duplicate, read-out: % inhibition of control values
Sequence (P27361 whole entry): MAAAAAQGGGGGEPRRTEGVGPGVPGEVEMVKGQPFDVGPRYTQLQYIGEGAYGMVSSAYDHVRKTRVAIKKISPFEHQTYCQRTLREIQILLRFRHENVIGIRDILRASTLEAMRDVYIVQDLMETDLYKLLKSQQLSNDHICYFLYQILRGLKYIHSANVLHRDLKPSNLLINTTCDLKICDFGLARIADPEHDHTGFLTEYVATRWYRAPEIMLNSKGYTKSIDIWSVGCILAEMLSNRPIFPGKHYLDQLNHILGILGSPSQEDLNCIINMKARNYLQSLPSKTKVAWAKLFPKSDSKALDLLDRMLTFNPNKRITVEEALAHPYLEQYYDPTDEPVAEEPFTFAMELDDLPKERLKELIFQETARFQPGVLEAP
MEASURED_METRIC: inhibition at 10 µM (%)

// known answers, use as guide
In [3]: df
Out[3]:
                               given_smiles      measured_metric  readout_number
0  O=C(O)CN1CCC(CNC(=O)c2n[nH]c3ccc(-c4cccc(F)c4F)cc23)CC1  inhibition at 10 µM              61
1  COCCN1CCC(CNC(=O)c2n[nH]c3ccc(OC)cc23)CC1  inhibition at 10 µM              15
2  COc1ccc2[nH]nc(C(=O)NCC3CCN(CC(=O)O)CC3)c2c1  inhibition at 10 µM              20

[P] CCc1ccc2[nH]nc(C(=O)NCC3CCN(CC(=O)O)CC3)c2c1
[Q] COc1ccc2[nH]nc(C(=O)NCC3CCN(CCC(=O)O)CC3)c2c1
[R] COCCN1CCC(CNC(=O)c2n[nH]c3ccc(-c4cccc(F)c4F)cc23)CC1
Q) Ordering: ascending inhibition at 10 µM. Enter labels, ranked according to the request.
A) P, Q, R

###

biological target: DLK1 (h) (MAP3K12) (Homo sapiens (Human), UniProt Q12852); test: Kinase selectivity panel: DLK1 (h) (MAP3K12); type: biochemical; details: 10 μM in duplicate, read-out: % inhibition of control values
Sequence (Q12852 whole entry): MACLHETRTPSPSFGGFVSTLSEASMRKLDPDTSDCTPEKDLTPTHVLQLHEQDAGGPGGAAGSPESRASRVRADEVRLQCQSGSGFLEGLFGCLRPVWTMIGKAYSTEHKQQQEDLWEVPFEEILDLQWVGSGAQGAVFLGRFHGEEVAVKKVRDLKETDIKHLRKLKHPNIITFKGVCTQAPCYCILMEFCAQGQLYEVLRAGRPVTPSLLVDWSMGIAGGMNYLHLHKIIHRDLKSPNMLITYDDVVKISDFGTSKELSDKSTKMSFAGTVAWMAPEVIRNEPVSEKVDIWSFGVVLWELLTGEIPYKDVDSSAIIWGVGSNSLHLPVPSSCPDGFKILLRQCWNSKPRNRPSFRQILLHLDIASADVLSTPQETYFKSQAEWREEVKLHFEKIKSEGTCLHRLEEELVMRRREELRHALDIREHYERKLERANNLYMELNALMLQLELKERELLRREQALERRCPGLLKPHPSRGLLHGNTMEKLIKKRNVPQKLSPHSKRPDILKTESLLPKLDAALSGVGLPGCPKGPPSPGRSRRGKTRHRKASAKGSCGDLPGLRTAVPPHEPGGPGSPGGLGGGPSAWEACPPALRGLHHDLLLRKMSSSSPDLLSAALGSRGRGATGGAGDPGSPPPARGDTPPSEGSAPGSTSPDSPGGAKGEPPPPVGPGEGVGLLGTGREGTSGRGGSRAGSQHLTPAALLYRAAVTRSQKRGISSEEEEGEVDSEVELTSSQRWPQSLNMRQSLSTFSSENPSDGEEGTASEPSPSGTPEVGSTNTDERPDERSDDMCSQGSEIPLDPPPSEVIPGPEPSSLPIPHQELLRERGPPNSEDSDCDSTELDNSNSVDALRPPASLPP
MEASURED_METRIC: inhibition at 10 µM (%)

Some solved entries appear below for comparison.
In [3]: df
Out[3]:
                                   compound                               measured_on  units_label  readout_number
0  COc1ccc2[nH]nc(C(=O)NCC3CCN(CCC(=O)O)CC3)c2c1 [Compound 3]  DLK1 (h) (MAP3K12) (Homo sapiens (Human), UniProt Q12852)            %               0
1  COCCN1CCC(CNC(=O)c2n[nH]c3ccc(OC)cc23)CC1 [Compound 2]  DLK1 (h) (MAP3K12) (Homo sapiens (Human), UniProt Q12852)            %               0

[P] COCCN1CCC(CNC(=O)c2n[nH]c3ccc(-c4cccc(F)c4F)cc23)CC1 [Compound 8]
[Q] COc1ccc2[nH]nc(C(=O)NCC3CCN(CC(=O)O)CC3)c2c1 [Compound 1]
Q) Quick check, higher inhibition at 10 µM between P and Q ? Identify your pick by its label.
A) P
